# Target Or System: T1, human SLC34A2 (human, UniProt O95436 1-690)
# T1 construct: whole, on cells; also called human solute carrier 34 A2; NaPi2b
# T1 sequence (looked up): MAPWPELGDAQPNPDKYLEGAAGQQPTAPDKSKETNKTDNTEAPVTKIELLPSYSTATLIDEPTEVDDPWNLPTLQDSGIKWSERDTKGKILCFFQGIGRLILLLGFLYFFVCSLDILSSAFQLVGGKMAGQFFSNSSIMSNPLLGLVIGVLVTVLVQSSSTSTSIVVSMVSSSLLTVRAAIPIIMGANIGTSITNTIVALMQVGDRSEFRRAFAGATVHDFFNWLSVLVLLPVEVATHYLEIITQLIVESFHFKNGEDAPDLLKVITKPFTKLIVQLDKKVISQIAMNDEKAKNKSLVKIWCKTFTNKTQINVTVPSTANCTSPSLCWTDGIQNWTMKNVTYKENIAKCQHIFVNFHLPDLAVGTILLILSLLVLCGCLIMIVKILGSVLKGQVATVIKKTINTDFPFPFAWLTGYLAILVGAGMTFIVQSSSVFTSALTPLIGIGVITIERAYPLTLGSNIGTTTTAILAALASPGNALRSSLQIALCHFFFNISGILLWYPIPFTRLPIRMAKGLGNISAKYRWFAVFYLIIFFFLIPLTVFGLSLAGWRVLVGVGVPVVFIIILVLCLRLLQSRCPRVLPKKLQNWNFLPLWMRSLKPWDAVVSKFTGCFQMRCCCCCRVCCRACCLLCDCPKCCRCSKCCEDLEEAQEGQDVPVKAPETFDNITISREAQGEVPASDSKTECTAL
# Assay Name: FACS, OVCAR3 cells
Value Kind: EC50 (nM)
Only the number, expressed in nM, is required.

• 63A11D5B4.p1.z13 hIgG1 (antibody, V domains shown, humanized hIgG1) VH: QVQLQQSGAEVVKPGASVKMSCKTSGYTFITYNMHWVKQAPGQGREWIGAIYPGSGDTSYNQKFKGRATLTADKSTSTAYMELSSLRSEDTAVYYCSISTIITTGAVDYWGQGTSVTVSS VL: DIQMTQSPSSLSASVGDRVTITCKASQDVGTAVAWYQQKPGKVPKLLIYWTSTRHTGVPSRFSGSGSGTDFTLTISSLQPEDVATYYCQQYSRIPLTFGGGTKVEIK = 16.4
• xi63A11D5B4 hIgG1 (antibody, V domains shown, chimeric, hIgG1) VH: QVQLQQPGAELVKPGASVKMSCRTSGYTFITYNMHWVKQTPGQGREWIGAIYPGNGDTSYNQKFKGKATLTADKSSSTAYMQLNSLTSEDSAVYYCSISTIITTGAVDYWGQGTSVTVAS VL: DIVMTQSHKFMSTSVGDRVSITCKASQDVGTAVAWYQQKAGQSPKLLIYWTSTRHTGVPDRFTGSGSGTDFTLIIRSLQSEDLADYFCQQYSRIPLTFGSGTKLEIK = 10.5
• 63A11D5B4.p1.z10 hIgG1 (antibody, V domains shown, humanized hIgG1) VH: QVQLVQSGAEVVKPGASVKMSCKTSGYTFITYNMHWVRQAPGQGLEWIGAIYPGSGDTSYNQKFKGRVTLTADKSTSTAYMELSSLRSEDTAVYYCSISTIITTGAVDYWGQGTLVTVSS VL: DIQMTQSPSSLSTSVGDRVTITCKASQDVGTAVAWYQQKPGKSPKLLIYWTSTRHTGVPSRFSGSGSGTDFTLIISSLQPEDVATYYCQQYSRIPLTFGGGTKVEIK = 12.3

Q. Please look at this binder and report its EC50: 63A11D5B4.p1.z16 hIgG1 (antibody, V domains shown, humanized hIgG1) VH: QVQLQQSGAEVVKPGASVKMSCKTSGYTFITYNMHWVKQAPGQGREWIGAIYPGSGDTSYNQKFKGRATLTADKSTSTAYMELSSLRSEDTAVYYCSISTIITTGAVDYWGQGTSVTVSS VL: DIVMTQSPSSLSTSVGDRVTITCKASQDVGTAVAWYQQKPGQSPKLLIYWTSTRHTGVPDRFTGSGSGTDFTLIIRSLQPEDVATYFCQQYSRIPLTFGSGTKVEIK
A. 11.4

Q. Please look at this binder and report its EC50: 63A11D5B4.p1.z5 hIgG1 (antibody, V domains shown, humanized hIgG1) VH: QVQLVQSGAEVKKPGASVKVSCKTSGYTFITYNMHWVRQAPGQGLEWIGAIYPGSGDTSYNQKFKGRVTMTADTSTSTVYMELSSLRSEDTAVYYCSISTIITTGAVDYWGQGTLVTVSS VL: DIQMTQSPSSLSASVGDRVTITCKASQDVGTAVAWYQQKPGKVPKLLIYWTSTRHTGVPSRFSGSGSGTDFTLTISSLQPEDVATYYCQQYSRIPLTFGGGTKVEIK
A. 13.5
